Assay: soluble fraction after stress (log2 fold change); higher = more stays soluble; pooled small domains, quantitative proteomics
Conditions: stress: 50 degC
The sequences listed here are annotated with their soluble fraction (log2).
Provide a numeric answer; units are not to be included.

Some sequences with recorded soluble fraction (log2):
HMKPKDILLPNFTNLTLDEAKAKAEEVKLNLNVSEEKYDVQIEEGKIISQDPKYQPNYTVKEGSTVNVVVS : 0.161
HMVEPDELTEREREVLQFVARGLSNKEIGAALALSPHTIKAHLRSILDKLHLRSRAEAAAWAVRSGLS : -0.143

Moving on to another sequence below.
Task item: GET /values?readout=soluble fraction (log2)&item= `HMDSTDSIIHYVRAHRSLEVKNLSFAEARFKKVVELEPNFARGWLGLGEVSILKNNFENASIYLDKALE`
Reply: -0.463

----------
Assay: soluble fraction after stress (log2 fold change); higher = more stays soluble; pooled small domains, quantitative proteomics
Settings: stress: 50 degC
The sequences listed here are annotated with their soluble fraction (log2).

HMQVFDSNEIDEVVKKVIENNPQAVADFKKGKSNALQFLAGQVMRETKGRFNPNVVQERIRLLLT : 0.458
HMTDLNQIGERIKGLRDALGYSPEKMASILEQKVDDYLAYEEGTKDISLSVLQRIEKEFDIDLSTLLFGT : -0.148
HMPTSLPGIDIDEKNIVSSTGALSFKKVPKKLAIIGGGYIGLEMGSVWSRLGSSVTVIEYLNFITPG : -0.00687
HMRMSLDEAKAVVLPIGEYKGRNMGEVLAIKPELIDFYASQKFNSSKYPYLKEAAQVILENQ : -0.0538
HMSEEVDVPDLVGMQLEEAEKSLEPLGLKLKIAKEIPNSEFEKGKIVDQKTKAGEKVKTGYTIEVTVSSG : -0.267

Task item: GET /values?readout=soluble fraction (log2)&item= `HMDQSIDADIINLNFSKNIIKIEENVYYKNNNAKVNADKIEINIETKKLKISMNEQEDEVEIFAK`
Reply: 0.283

Task item: Follow-up item: `HMGSLVQTAMQAVTKHIHDNAMRVGDTLPGEGHFAETLGVSRAVMREAFGALAALKLIDVGNGRKPRVGR`
Reply: -0.819

Task item: Follow-up item: `HMAHYPGKVNNELVEFIRSEQRKTPHMTLTGLNRKLQRTYDLTLSESTVRKLVEAETILPLAREPD`
Reply: -0.0739

Task item: Follow-up item: `HMFRMTPQRMAILAEVQNAERHLTAAEIYERVRRKYPTIAYGTVYRTLHLLAKHGLIQEFPFGDNASLFDR`
Reply: 0.0678

Task item: Follow-up item: `HMVTFDEISQSLVRDVAARRSLSVQTLHAMVDRYNAGSSINAVANQYGIDRLKLREILIELGVHVAT`
Reply: 0.159

Task item: Follow-up item: `HMRKIVEGVLTKKEGKWYLLTDIETYKISDASAEYHKAELNDRASALIPAQNPKVPFASLEKVFN`
Reply: -0.219

Task item: Follow-up item: `HMSATPQRMTIIDALDSSGKNLSAYELLDLLNDKGQLFNISTIYRVLDFWIEMGIVHKINSSNTYL`
Reply: 0.125

Task item: Follow-up item: `HMFTEEEMTKLRHELILAGIRLSRELGLQRMSVEKITSAVGIAKGSFYIFFDSKEDFILEIADHANRE`
Reply: -1.06

Task item: Follow-up item: `HMFNTWLGEIRSNTGANVRSGPDASAAIVDARPNETVVRVIGQSGNWLQIGDKQFVAQSLVAP`
Reply: -0.0505

Task item: Follow-up item: `HMVPQAVQDIKAYLASGALPYIGPATAKKIVAMFGSDALDVIAEHPEQLTAIRGLNEEKANAIHQEFRRQF`
Reply: -0.0649

Task item: Follow-up item: `HMRKDEFLQTLRRALNGNVPPRVVEENVRYYDGYISDEVRKGRSEEEVIEEIGDPRLIARTIEDTT`
Reply: 0.0826

Task item: Follow-up item: `HMNPNPYIVLGVDKSMPFGEIKKVYQRKRREFHPDSLVAKGLPDELLQKAQDKFIAIQEAYKSIEKNQV`
Reply: 0.317

Task item: Follow-up item: `HMDSILSIVGGEESYKALLAWAENNISQQELQQLETILKSGNVPAIKRVLVTLMNRFNQAQS`
Reply: -0.147

Task item: Follow-up item: `HMAIIQSNNIFKSQKEIVDEILVELDIPKDKWNFFHMLISSGYKDEFDTNRIYEIIQTNYNMMDR`
Reply: -0.205

Task item: Follow-up item: `HMKSYQKITPATEGNYLTTYREGDDIKTYEGVKAMYTPADFDASSVREITPEEHQSYQKAKEQALQEETEQ`
Reply: -0.225

Task item: Follow-up item: `HMDEEVLVVQEGGERLDVFVAANAEGITRSFVQNLIKKGDVTVDGAPRKANYRLRSGQVVRFSLPEP`
Reply: -0.328

Task item: Follow-up item: `HMTSAIAEGTVIRLTQSTNIRESMSEDAPKVATAFSGEKVTVIMSYAEGWTKVTYGDKTGYIKTELL`
Reply: -0.184

Task item: Follow-up item: `HMEVPDTIIRLRELVAAMPEQWQKVYRLVFMEGLSKAKAGKKIGISDVRVGQLVKKINAAIAGDETLK`
Reply: -0.714
